Can you tell me Activity for the items I'm about to list?
system: Mythimna separata; experiment: Stomach toxicity against third-instar Mythimna separata (Oriental armyworm) in compound treated fresh corn leaves assessed as insecticidal activity at 10 mg/L measured after 4 days by leaf-dip method; type: functional
Numbers only, in %.

For orientation, consider the following solved cases.
>>> result("Cc1cc(C)cc(C(=O)N(NC(=O)c2ccc3c(c2)OC(C)C3)C(C)(C)C)c1 (configuration not stated)")
70
>>> result("Cc1cc(C)cc(C(=O)N(NC(=O)c2ccccc2)C(C)(C)C)c1")
80
>>> result("Cc1cc(C)cc(C(=O)N(NC(=O)c2ccc3c(c2C)OC(C)C3)C(C)(C)C)c1 (configuration not stated)")
100

# per-item lookup of Activity; items listed below
1. COc1cccc(C(=O)NN(C(=O)c2cc(C)cc(C)c2)C(C)(C)C)c1C [METHOXYFENOZIDE]
2. Cc1cc(C)cc(C(=O)N(NC(=O)c2cccc3c2CC(C)O3)C(C)(C)C)c1 (configuration not stated)
3. Cc1cc(C)cc(C(=O)N(NC(=O)c2ccc3c(c2C)CCCO3)C(C)(C)C)c1 [CHROMAFENOZIDE]
4. Cc1cc(C)cc(C(=O)N(NC(=O)c2ccc3cc(C)oc3c2)C(C)(C)C)c1

100
60
100
50

====

tested on: Ostrinia nubilalis; experiment: Stomach toxicity against third-instar Ostrinia nubilalis (European corn borer) in compound treated fresh corn leaves assessed as insecticidal activity at 200 mg/L measured after 4 days by leaf-dip method; format: functional
outcomeMeasure: Activity (%)
Numbers only, in %.

>>> result("Cc1cc(C)cc(C(=O)N(NC(=O)c2ccc3cc(C)oc3c2)C(C)(C)C)c1")
40
>>> result("Cc1cc(C)cc(C(=O)N(NC(=O)c2cccc3c2OCO3)C(C)(C)C)c1")
30
>>> result("Cc1cc(C)cc(C(=O)N(NC(=O)c2ccc3c(c2C)OC(C)C3)C(C)(C)C)c1 (centres undefined)")
100
>>> result("COc1cccc(C(=O)NN(C(=O)c2cc(C)cc(C)c2)C(C)(C)C)c1C [METHOXYFENOZIDE]")
100
>>> result("Cc1cc(C)cc(C(=O)N(NC(=O)c2cccc3c2CC(C)O3)C(C)(C)C)c1 (centres undefined)")
70

# per-item lookup of Activity; items listed below
1. Cc1cc(C)cc(C(=O)N(NC(=O)c2ccc3c(c2)OC(C)C3)C(C)(C)C)c1 (centres undefined)
2. Cc1cc(C)cc(C(=O)N(NC(=O)c2ccc3c(c2C)CCCO3)C(C)(C)C)c1 [CHROMAFENOZIDE]
3. Cc1cc(C)cc(C(=O)N(NC(=O)c2cccc3c2CCCO3)C(C)(C)C)c1
4. Cc1cc(C)cc(C(=O)N(NC(=O)c2cccc3oc(C)cc23)C(C)(C)C)c1

1. 60
2. 100
3. 0
4. 40

====

system: Spodoptera exigua; assay: Stomach toxicity against third-instar Spodoptera exigua in compound treated fresh cabbage leaves assessed as insecticidal activity at 50 mg/L measured after 3 days by leaf-dip method; assay type: functional
Can you tell me Activity for the items I'm about to list?
Hey, just the number and the unit after it is fine.

>>> result("Cc1cc(C)cc(C(=O)N(NC(=O)c2ccc3c(c2C)OC(C)C3)C(C)(C)C)c1 (stereo unspecified)")
"100%"
>>> result("Cc1cc(C)cc(C(=O)N(NC(=O)c2ccc3c(c2)OC(C)C3)C(C)(C)C)c1 (stereo unspecified)")
"100%"
>>> result("Cc1cc(C)cc(C(=O)N(NC(=O)c2cccc3c2CC(C)O3)C(C)(C)C)c1 (stereo unspecified)")
"100%"
>>> result("Cc1cc(C)cc(C(=O)N(NC(=O)c2ccc3cc(C)oc3c2)C(C)(C)C)c1")
"100%"
>>> result("COc1cccc(C(=O)NN(C(=O)c2cc(C)cc(C)c2)C(C)(C)C)c1C [METHOXYFENOZIDE]")
"100%"

Proceed to the following item.
For the molecule Cc1cc(C)cc(C(=O)N(NC(=O)c2ccc3c(c2C)CCCO3)C(C)(C)C)c1 [CHROMAFENOZIDE] , what Activity is on record?
100%
